In this section, each of the compounds is paired with its reported Control of AVEFA after post-emergence application (score 0-5).
system: Avena fatua (AVEFA); experiment: Post-emergence herbicidal activity, Avena fatua; type: in vivo; details: 1000 g/ha, evaluated after 13 days
// print number alone

Field: example entries. Status: answers known.
compound="O=C(Nc1ccc(-c2cncc(F)c2)nc1C(F)(F)F)NC1CC1 [Compound B89]" quantitative_readout=4
compound="O=C1NCCN1c1ccc(-c2cncc(F)c2)nc1C(F)(F)F [Compound B64]" quantitative_readout=3
compound="CSCCCOC(=O)Nc1ccc(-c2cncc(F)c2)nc1C(F)(F)F [Compound B83]" quantitative_readout=4
compound="O=C(Nc1ccc(-c2cncc(F)c2)nc1C(F)(F)F)NC1CCCC1 [Compound B50]" quantitative_readout=3

Consider now this further compound.
Log: Avena fatua (AVEFA), compound CC#Cc1cncc(-c2ccc(NC(=O)OC(C)(C)C)c(C)n2)c1 [Compound B33] , Control of AVEFA after post-emergence application (score 0-5) = 4
